Experiment: ATG_PBREM_CIS: Attagene CIS-FACTORIAL HepG2 Assay for human Phenobarbital-responsive Enhancer Module (PBREM) (AID 2282955)
Conditions: HepG2 PBREM cis-reporter, Attagene multiplexed transcription; actives raise or lower the signal
Method: ATG_CIS is a cell-based, multiplexed-readout assay that uses HepG2, a human liver cell line, with measurements taken at 24 hours after chemical dosing in a 24-well plate.ATG_PBREM_CIS is one of 52 assay component(s) measured or calculated from the ATG_CIS assay. […] This assay endpoint, ATG_PBREM_CIS, was analyzed with bidirectional fitting relative to DMSO as the negative control and baseline of activity. […]
Calls of active or inactive are those of the source. Rule for the calls: active = hit-call score of the fitted dose curve at least 0.9, where 1 is the maximum; inactive = score below 0.9.
Output constraint: value belongs to active, inactive

Consider the following illustrative entries.
Lab log entry: Cc1ccc(N(C)C)cc1 — outcome as called in the assay?
inactive

Test call for this compound, please: Cc1cccc(Nc2cc(Cl)nc(SCC(=O)O)n2)c1C
inactive

Name the outcome recorded for Cc1cccc(C)c1O in the assay.
inactive

***
# outcome recorded in this test, key = COc1ccc(S(=O)(=O)N2C(=O)[C@@](c3ccccc3OC)(N3C[C@H](O)C[C@H]3C(=O)N(C)C)c3cc(Cl)ccc32)c(OC)c1
active

For this compound, state the assay outcome: COc1cc(/C=C/C(=O)CC(=O)/C=C/c2ccc(O)c(OC)c2)ccc1O
inactive

----------
read-out: Signal transducer and activator of transcription 3 (Homo sapiens); assay: LTEA_HepaRG_STAT3: Life Technologies and Expression Analysis (LTEA) Assay for Signal transducer and activator of transcription (STAT3) using HepaRG (AID 2283529); settings: mRNA level, 48 h; actives raise or lower the signal
The source made the active and inactive calls. The calls were made as follows: active = hit-call score of the fitted dose curve at least 0.9, where 1 is the maximum; inactive = score below 0.9.
Please answer using one outcome listed in active, inactive

What outcome does the record of this test show for Oc1ccc2ccccc2c1N=Nc1ccccc1 ?
active

What outcome does the record of this test show for CC(=O)OC/C=C(\C)CCC=C(C)C ?
inactive

GET /call?item= CCCCCCCCCCCCCO returns the recorded outcome of this test.
inactive

What classification did CNC(=O)[C@H]1O[C@@H](n2cnc3c(NCc4cc(Cl)ccc4OCc4cc(C)no4)ncnc32)[C@H](O)[C@@H]1N end up with in this test?
inactive

Call for entry CCCc1cc(=O)[nH]c(=S)[nH]1 :
inactive

// outcome(item) with item = Cc1ccc(C)c(C)c1
inactive

Others:
Any idea what this test logged for NCC1(Cc2noc(=O)[nH]2)CCCCC1 ?
inactive

Assay outcome for CCCCCCC(=O)OCC : what was it?
inactive

# lookup: test call for CNCc1cc(F)ccc1Oc1ccc(Cl)c(Cl)c1
inactive

State the result this test recorded for O=c1c(O)c(-c2ccc(O)c(O)c2)oc2cc(O)cc(O)c12 .
inactive

// param item: CCOc1ccc2c(c1)C(C)=CC(C)(C)N2 ; yields the recorded call
inactive

----------
molecular target: human Dopamine Transporter (DAT), SLC6A3 (gene 6531) (UniProt Q01959); test: NVS_TR_hDAT: NovaScreen (NVS) Transporter Assay for human Dopamine Transporter (DAT) (AID 2283374);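 note: activity means loss of bound radioligand signal relative to DMSO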
Sequence (Q01959 whole entry, looked up): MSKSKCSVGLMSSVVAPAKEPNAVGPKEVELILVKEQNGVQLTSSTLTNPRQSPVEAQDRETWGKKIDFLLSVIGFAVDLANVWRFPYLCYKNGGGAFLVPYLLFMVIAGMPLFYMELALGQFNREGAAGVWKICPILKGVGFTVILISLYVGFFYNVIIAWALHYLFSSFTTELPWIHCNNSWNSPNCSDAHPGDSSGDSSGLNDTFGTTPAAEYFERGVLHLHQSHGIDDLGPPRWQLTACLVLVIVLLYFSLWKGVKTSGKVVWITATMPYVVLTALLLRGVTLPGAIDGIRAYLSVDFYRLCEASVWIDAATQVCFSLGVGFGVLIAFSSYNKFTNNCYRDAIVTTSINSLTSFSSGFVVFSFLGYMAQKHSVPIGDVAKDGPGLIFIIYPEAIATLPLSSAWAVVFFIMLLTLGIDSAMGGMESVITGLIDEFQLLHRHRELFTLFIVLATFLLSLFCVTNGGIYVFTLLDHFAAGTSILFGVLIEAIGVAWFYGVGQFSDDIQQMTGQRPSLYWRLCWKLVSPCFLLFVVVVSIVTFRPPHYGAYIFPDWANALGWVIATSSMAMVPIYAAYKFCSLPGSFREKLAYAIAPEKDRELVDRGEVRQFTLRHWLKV
Records with an inconclusive call do not appear. Calls of active or inactive are those of the source. How the source made its calls: active means hit-call score of the fitted dose curve at least 0.9, where 1 is the maximum; inconclusive means response in the unintended direction; inactive means score below 0.9.
Use one of these outcomes when replying: active, inactive

Assay outcome for Oc1ccc2c(c1)OC[C@@H](N1CCC(O)(c3ccc(F)cc3)CC1)[C@H]2O : what was it?
active

Note: attention shifts to another entry.
Assay result, entry COC(=O)c1ccc(O)cc1 — outcome?
inactive

This collection of values is drawn from PubChem BioAssay (EPA / NIEHS).
